property.measured: melting point

{"compound": "Cc1ccc(NC(=O)CCCCCCNc2c3c(nc4ccccc24)CCCC3)c(N)c1 [Example 12]", "measurement": "63 to 64 °C"}
{"compound": "O=C(CCCCCCNc1c2c(nc3ncccc13)CCCC2)NO [Example 7]", "measurement": "234 to 235 °C"}
{"compound": "O=C(CCCCCNc1c2c(nc3ccccc13)CCCC2)NO [Example 1]", "measurement": "162 to 164 °C"}
{"compound": "CC(C)(C)c1ccc(N)c(NC(=O)CCCCCCNc2c3c(nc4ccccc24)CCCC3)c1 [Example 14]", "measurement": "75 to 76 °C"}
{"compound": "Nc1ccc(-c2ccccc2)cc1NC(=O)CCCCCCNc1c2c(nc3ccccc13)CCCC2 [Example 15]", "measurement": "101 to 102 °C"}
{"compound": "Cc1ccc(N)c(NC(=O)CCCCCCNc2c3c(nc4ccccc24)CCCC3)c1 [Example 13]", "measurement": "204 to 205 °C"}
{"compound": "Nc1ncc(-c2ccccc2)cc1NC(=O)CCCCCCNc1c2c(nc3ccccc13)CCCC2 [Example 20]", "measurement": "49 to 50 °C"}
{"compound": "O=C(NO)c1ccc(CNc2c3c(nc4ccccc24)CCCC3)cc1 [Example 9]", "measurement": "204 to 205 °C"}
{"compound": "O=C(CCCCCCNC(=O)c1c2c(nc3ccccc13)CCCC2)NO [Example 11]", "measurement": "185 to 186 °C"}
{"compound": "O=C(CCCCCNC(=O)c1c2c(nc3ccccc13)CCCC2)NO [Example 10]", "measurement": "187 to 188 °C"}
{"compound": "O=C(CCCCCCNc1c2c(nc3c(O)cccc13)CCCC2)NO [Example 6]", "measurement": "73 °C"}
{"compound": "O=C(CCCCCCNc1c2c(nc3ccccc13)CCCC2)NO [Example 2]", "measurement": "156 to 157 °C"}
{"compound": "O=C(CCCCCCNc1c2c(nc3cnccc13)CCCC2)NO [Example 8]", "measurement": "56.7 °C"}
{"compound": "O=C(CCCCCCNc1c2c(nc3ccccc13)CCC2)NO [Example 3]", "measurement": "165 to 166 °C"}
{"compound": "COc1cccc2c(NCCCCCCC(=O)NO)c3c(nc12)CCCC3 [Example 5]", "measurement": "361 °C"}
{"compound": "O=C(CCCCCCNc1c2c(nc3ccccc13)CCCCC2)NO [Example 4]", "measurement": "155 to 156 °C"}
{"compound": "Cc1cccc(-c2ccc(N)c(NC(=O)CCCCCCNc3c4c(nc5ccccc35)CCCC4)c2)c1 [Example 17]", "measurement": "53 to 54 °C"}
{"compound": "Nc1ccc(-c2ccccc2)cc1NC(=O)CCCCCNc1c2c(nc3ccccc13)CCCC2 [Example 16]", "measurement": "75 to 76 °C"}
{"compound": "CC(C)(C)c1ccc(-c2ccc(N)c(NC(=O)CCCCCCNc3c4c(nc5ccccc35)CCCC4)c2)cc1 [Example 18]", "measurement": "55 to 56 °C"}
{"compound": "Nc1ccc(-c2ccc3ccccc3c2)cc1NC(=O)CCCCCCNc1c2c(nc3ccccc13)CCCC2 [Example 19]", "measurement": "100 to 101 °C"}

----------
Target: Human HDAC2 (Homo sapiens, UniProt Q92769)
Construct: Full length with C-terminal His tag, MW=60 kDa; His (C); purchased BioMol SE-500; host or cells: baculovirus / Sf9 cells
Sequence (Q92769 whole entry): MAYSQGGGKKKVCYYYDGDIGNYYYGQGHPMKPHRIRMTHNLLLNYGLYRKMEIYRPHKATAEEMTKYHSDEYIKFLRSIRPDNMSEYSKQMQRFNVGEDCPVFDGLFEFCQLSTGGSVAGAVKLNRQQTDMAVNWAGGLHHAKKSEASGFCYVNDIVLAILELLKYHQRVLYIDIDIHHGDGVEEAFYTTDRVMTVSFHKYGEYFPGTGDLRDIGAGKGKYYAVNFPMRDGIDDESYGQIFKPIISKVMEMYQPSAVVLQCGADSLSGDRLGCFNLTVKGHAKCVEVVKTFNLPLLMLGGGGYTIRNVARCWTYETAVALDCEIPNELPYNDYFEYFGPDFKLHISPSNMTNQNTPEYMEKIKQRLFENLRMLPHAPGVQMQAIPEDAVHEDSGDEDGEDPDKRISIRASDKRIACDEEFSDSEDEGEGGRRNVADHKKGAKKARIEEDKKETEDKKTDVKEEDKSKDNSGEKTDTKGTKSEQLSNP
Experiment: In vitro HDAC2 inhibition, fluorogenic peptide substrate
Assay type: biochemical
Settings: read-out: IC50 (μM) HDAC-2
Each item that follows carries a reported log10 of IC50.
property.measured: log10 of IC50 (log10 of the value in µM)

{"molecule": "O=C(CCCCCCNc1c2c(nc3ccccc13)CCCCC2)NO [Example 4]", "tested.target": "Human HDAC2 (Homo sapiens, UniProt Q92769)", "property.measured": "log10 of IC50", "measurement": 0.28}
{"molecule": "O=C(CCCCCCNc1c2c(nc3ccccc13)CCCC2)NO [Example 2]", "tested.target": "Human HDAC2 (Homo sapiens, UniProt Q92769)", "property.measured": "log10 of IC50", "measurement": -0.12}
{"molecule": "COc1cccc2c(NCCCCCCC(=O)NO)c3c(nc12)CCCC3 [Example 5]", "tested.target": "Human HDAC2 (Homo sapiens, UniProt Q92769)", "property.measured": "log10 of IC50", "measurement": 0.26}
{"molecule": "O=C(CCCCCCNc1c2c(nc3ncccc13)CCCC2)NO [Example 7]", "tested.target": "Human HDAC2 (Homo sapiens, UniProt Q92769)", "property.measured": "log10 of IC50", "measurement": 0.65}
{"molecule": "O=C(CCCCCCNc1c2c(nc3ccccc13)CCC2)NO [Example 3]", "tested.target": "Human HDAC2 (Homo sapiens, UniProt Q92769)", "property.measured": "log10 of IC50", "measurement": -0.11}
{"molecule": "O=C(CCCCCCNC(=O)c1c2c(nc3ccccc13)CCCC2)NO [Example 11]", "tested.target": "Human HDAC2 (Homo sapiens, UniProt Q92769)", "property.measured": "log10 of IC50", "measurement": 0.93}
{"molecule": "O=C(CCCCCCNc1c2c(nc3cnccc13)CCCC2)NO [Example 8]", "tested.target": "Human HDAC2 (Homo sapiens, UniProt Q92769)", "property.measured": "log10 of IC50", "measurement": 0.38}
{"molecule": "O=C(CCCCCNc1c2c(nc3ccccc13)CCCC2)NO [Example 1]", "tested.target": "Human HDAC2 (Homo sapiens, UniProt Q92769)", "property.measured": "log10 of IC50", "measurement": 0.78}

----------
Each item that follows carries a reported IC50.
Biological target: Human HDAC3/NcoR2 (Homo sapiens, UniProt O15379)
Construct: Complex of human HDAC3, full length with C-terminal His tag, MW=49.7 kDa; His (C); purchased BioMol SE-507; host or cells: baculovirus expression system
Sequence (O15379 whole entry): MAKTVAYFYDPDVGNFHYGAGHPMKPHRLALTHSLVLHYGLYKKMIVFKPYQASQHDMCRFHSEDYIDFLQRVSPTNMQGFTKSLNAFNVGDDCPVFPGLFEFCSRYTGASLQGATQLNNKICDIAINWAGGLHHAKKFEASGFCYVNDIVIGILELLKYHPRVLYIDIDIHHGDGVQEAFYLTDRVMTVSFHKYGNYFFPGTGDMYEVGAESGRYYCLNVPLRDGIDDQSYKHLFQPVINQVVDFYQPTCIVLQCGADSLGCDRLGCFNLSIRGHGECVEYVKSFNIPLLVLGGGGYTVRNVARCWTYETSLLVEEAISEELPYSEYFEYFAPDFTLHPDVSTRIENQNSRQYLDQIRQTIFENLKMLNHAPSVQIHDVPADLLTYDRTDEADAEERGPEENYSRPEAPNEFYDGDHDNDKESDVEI
Sequence (Q9Y618 395-489 partner limits assumed): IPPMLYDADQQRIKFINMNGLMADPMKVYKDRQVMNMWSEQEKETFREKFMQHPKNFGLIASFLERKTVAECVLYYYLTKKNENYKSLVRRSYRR
Experiment: In vitro HDAC3 inhibition, fluorogenic peptide substrate
Format: biochemical
Settings: read-out: IC50 (μM) HDAC-3
property.measured: IC50 (µM)

{"smiles.input": "O=C(CCCCCCNc1c2c(nc3ncccc13)CCCC2)NO", "readout.units": "µM", "lt.gt.eq": "=", "measurement": 2.44}
{"smiles.input": "O=C(CCCCCCNC(=O)c1c2c(nc3ccccc13)CCCC2)NO", "readout.units": "µM", "lt.gt.eq": "=", "measurement": 3.62}
{"smiles.input": "O=C(CCCCCNC(=O)c1c2c(nc3ccccc13)CCCC2)NO", "readout.units": "µM", "lt.gt.eq": ">", "measurement": 5}
{"smiles.input": "O=C(CCCCCCNc1c2c(nc3ccccc13)CCC2)NO", "readout.units": "µM", "lt.gt.eq": "=", "measurement": 0.36}
{"smiles.input": "O=C(CCCCCNc1c2c(nc3ccccc13)CCCC2)NO", "readout.units": "µM", "lt.gt.eq": "=", "measurement": 2.84}
{"smiles.input": "COc1cccc2c(NCCCCCCC(=O)NO)c3c(nc12)CCCC3", "readout.units": "µM", "lt.gt.eq": "=", "measurement": 0.66}
{"smiles.input": "O=C(CCCCCCNc1c2c(nc3ccccc13)CCCC2)NO", "readout.units": "µM", "lt.gt.eq": "=", "measurement": 0.42}
{"smiles.input": "O=C(CCCCCCNc1c2c(nc3ccccc13)CCCCC2)NO", "readout.units": "µM", "lt.gt.eq": "=", "measurement": 0.74}
{"smiles.input": "O=C(CCCCCCNc1c2c(nc3cnccc13)CCCC2)NO", "readout.units": "µM", "lt.gt.eq": "=", "measurement": 1.88}

----------
Target: Human HDAC10 (Homo sapiens)
Construct: Amino acids 1-631 with Nterminal GST tag, MW=96 kDa; GST (N); purchased BioMol SE-559; host or cells: baculovirus / Sf9 cells
Sequence (Q969S8 1-631): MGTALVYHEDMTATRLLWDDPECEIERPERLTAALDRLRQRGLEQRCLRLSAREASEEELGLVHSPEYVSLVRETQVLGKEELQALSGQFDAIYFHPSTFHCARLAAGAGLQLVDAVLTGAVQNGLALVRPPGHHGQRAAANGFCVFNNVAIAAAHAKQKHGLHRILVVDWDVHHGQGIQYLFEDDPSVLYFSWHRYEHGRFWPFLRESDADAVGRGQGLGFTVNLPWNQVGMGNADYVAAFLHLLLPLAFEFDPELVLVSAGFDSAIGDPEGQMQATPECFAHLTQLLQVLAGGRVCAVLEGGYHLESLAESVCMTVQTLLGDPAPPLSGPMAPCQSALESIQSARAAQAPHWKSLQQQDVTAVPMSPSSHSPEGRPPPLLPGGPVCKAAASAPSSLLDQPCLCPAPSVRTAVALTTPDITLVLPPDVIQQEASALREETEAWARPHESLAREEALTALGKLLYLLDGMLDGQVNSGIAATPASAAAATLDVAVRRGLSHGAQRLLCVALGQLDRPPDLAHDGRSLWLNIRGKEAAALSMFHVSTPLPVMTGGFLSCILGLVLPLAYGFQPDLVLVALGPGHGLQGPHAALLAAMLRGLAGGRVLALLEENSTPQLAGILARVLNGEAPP
Experiment: In vitro HDAC10 inhibition, fluorogenic peptide substrate
Type: biochemical
Settings: read-out: IC50 (μM) HDAC-10
Each item that follows carries a reported IC50.

{"smiles.input": "O=C(CCCCCCNc1c2c(nc3ccccc13)CCC2)NO", "lt.gt.eq": "=", "IC50 / µM": 0.51}
{"smiles.input": "O=C(CCCCCNC(=O)c1c2c(nc3ccccc13)CCCC2)NO", "lt.gt.eq": ">", "IC50 / µM": 5}
{"smiles.input": "O=C(CCCCCNc1c2c(nc3ccccc13)CCCC2)NO", "lt.gt.eq": "=", "IC50 / µM": 5.76}
{"smiles.input": "O=C(CCCCCCNc1c2c(nc3ccccc13)CCCC2)NO", "lt.gt.eq": "=", "IC50 / µM": 0.71}
{"smiles.input": "O=C(CCCCCCNc1c2c(nc3cnccc13)CCCC2)NO", "lt.gt.eq": "=", "IC50 / µM": 2.02}
{"smiles.input": "O=C(CCCCCCNc1c2c(nc3ccccc13)CCCCC2)NO", "lt.gt.eq": "=", "IC50 / µM": 1.13}
{"smiles.input": "O=C(CCCCCCNC(=O)c1c2c(nc3ccccc13)CCCC2)NO", "lt.gt.eq": "=", "IC50 / µM": 6.89}
{"smiles.input": "O=C(CCCCCCNc1c2c(nc3ncccc13)CCCC2)NO", "lt.gt.eq": "=", "IC50 / µM": 4.02}
{"smiles.input": "COc1cccc2c(NCCCCCCC(=O)NO)c3c(nc12)CCCC3", "lt.gt.eq": "=", "IC50 / µM": 1.46}
